# measured-target: HLA-A*69:01
# protocol: IEDB peptide-MHC binding, purified MHC/competitive/fluorescence; filed as Kd, often an IC50 or EC50 that approximates it; bounds were set here for any values at or beyond the usual limits of such assays
# stated-conditions: source organism: Orthohantavirus andesense
pKd: −log10 of the molar value.
Listing of recorded pKd by entry.

| seq-text | pKd |
| --- | --- |
| VSANVKGNW | ≤ 4.70 |

# input for lookup
Form entry - test system: HLA-A*69:01; read-out: pKd; sequence: "NALEKALRW"
≤ 4.70

----------
# measured-target: HLA-B*15:01
# protocol: IEDB peptide-MHC binding, purified MHC/competitive/radioactivity; filed as Kd, often an IC50 or EC50 that approximates it; bounds were set here for any values at or beyond the usual limits of such assays
# stated-conditions: source organism: Vaccinia virus WR
pKd: −log10 of the molar value.
Our labelling divides records by pKd into ranges: lower: < 7; middle: ≥ 7 and < 8; upper: ≥ 8

| seq-text | qualitative-label |
| --- | --- |
| LVYKKMQSY | middle |
| MVCPNINAF | middle |
| AINNRICVM | middle |
| MCIKYTACM | lower |
| SQVKCCHYF | upper |
| ALLELFNAF | upper |
| LSIFFYSSF | middle |
| YIRFRKNHI | lower |
| KSHAAYIDY | upper |

Now turn to the next sequence.
Pick a category. Item: "YIKFIFLQM"
lower

----------
# measured-target: HLA-A*30:01
# protocol: IEDB peptide-MHC binding, purified MHC/direct/fluorescence; filed as Kd, often an IC50 or EC50 that approximates it; bounds were set here for any values at or beyond the usual limits of such assays
# stated-conditions: source organism: Vibrio parahaemolyticus
pKd: −log10 of the molar value.
observable: pKd

Form entry - test system: HLA-A*30:01; read-out: pKd; sequence: "VMETENALF"
≤ 4.35

----------
# measured-target: HLA-B*44:02
# protocol: IEDB peptide-MHC binding, purified MHC/competitive/radioactivity; filed as Kd, often an IC50 or EC50 that approximates it; bounds were set here for any values at or beyond the usual limits of such assays
# stated-conditions: source organism: Mammarenavirus whitewaterense
observable: Kd
Your reply should be a number followed by the unit it is expressed in.

// query Kd value for entry "SDSVCACGL"
3.09 µM

// query Kd value for entry "REPETTVVL"
18.6 µM

----------
# measured-target: HLA-B*15:01
# protocol: IEDB peptide-MHC binding, purified MHC/direct/fluorescence; filed as Kd, often an IC50 or EC50 that approximates it; bounds were set here for any values at or beyond the usual limits of such assays
# stated-conditions: source organism: Pseudomonas aeruginosa UCBPP-PA14
observable: Kd

Form entry - test system: HLA-B*15:01; read-out: Kd; sequence: "YTFCRLNVK"
≥ 20 µM

----------
# measured-target: HLA-A*68:02
# protocol: IEDB peptide-MHC binding, purified MHC/competitive/fluorescence; filed as Kd, often an IC50 or EC50 that approximates it; bounds were set here for any values at or beyond the usual limits of such assays
# stated-conditions: source organism: Vibrio parahaemolyticus AQ3810
observable: Kd

// query Kd value for entry "HFIYHKREK"
≥ 20 µM

----------
# measured-target: HLA-B*07:02
# protocol: IEDB peptide-MHC binding, purified MHC/direct/fluorescence; filed as Kd, often an IC50 or EC50 that approximates it; bounds were set here for any values at or beyond the usual limits of such assays
# stated-conditions: source organism: Giardia lamblia ATCC 50803
observable: Kd

| seq-text | Kd |
| --- | --- |
| LLPYPIAGC | ≥ 20 µM |
| VLASGPGPF | 9.38 µM |

# input for lookup
// query Kd value for entry "RIGGVLIFR"
≥ 20 µM
